measuredTarget: BRAF G466V (Homo sapiens, UniProt P15056, G466V)
Construct: expressed in transfected cells
Sequence (P15056 whole entry G466V): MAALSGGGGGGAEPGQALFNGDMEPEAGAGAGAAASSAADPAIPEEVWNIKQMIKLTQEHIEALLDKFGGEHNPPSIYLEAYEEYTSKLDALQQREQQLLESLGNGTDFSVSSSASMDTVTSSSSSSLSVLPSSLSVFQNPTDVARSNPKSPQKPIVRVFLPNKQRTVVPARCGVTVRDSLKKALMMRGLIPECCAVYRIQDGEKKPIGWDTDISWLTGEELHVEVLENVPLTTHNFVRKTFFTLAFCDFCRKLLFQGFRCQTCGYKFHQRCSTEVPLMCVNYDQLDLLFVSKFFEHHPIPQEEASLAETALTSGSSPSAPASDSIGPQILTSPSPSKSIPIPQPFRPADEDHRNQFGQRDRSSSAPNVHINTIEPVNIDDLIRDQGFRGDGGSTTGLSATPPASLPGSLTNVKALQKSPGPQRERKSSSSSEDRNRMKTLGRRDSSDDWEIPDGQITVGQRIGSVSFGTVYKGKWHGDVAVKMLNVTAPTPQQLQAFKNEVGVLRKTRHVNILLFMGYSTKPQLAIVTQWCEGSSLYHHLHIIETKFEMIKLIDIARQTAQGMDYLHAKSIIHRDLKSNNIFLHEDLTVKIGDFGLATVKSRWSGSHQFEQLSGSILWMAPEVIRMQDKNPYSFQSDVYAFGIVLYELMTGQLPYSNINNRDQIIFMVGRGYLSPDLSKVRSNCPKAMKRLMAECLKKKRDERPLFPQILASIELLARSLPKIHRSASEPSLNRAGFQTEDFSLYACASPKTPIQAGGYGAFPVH
testName: Cellular assay of target protein degradation, T-Rex 293 cells stably transfected with HA-BRAF G466V (HA immunofluorescence, high content imaging)
Format: cell-based
conditionSet: half maximal degradation, T-Rex 293 HA-BRAF G466V; read-out: BRaf G466V DC50
observable: DC50

compound: O=C1CCC(N2Cc3cc(CCCCCN4CCC(c5ccc(-c6cnc7[nH]cc(C(=O)c8c(F)ccc(NS(=O)(=O)N9CC[C@@H](F)C9)c8F)c7c6)cc5)CC4)ccc3C2=O)C(=O)N1 (some centres unmarked)
endpointResult: < 1 nM
--
compound: O=C1CCC(N2Cc3cc(C4CCN(CC5CCN(c6ncc(-c7cnc8[nH]cc(C(=O)c9c(F)ccc(NS(=O)(=O)N%10CC[C@@H](F)C%10)c9F)c8c7)cn6)CC5)CC4)ccc3C2=O)C(=O)N1 (some centres unmarked)
endpointResult: < 1 nM
--
compound: O=C1CC[C@H](N2Cc3cc(OC[C@@H](O)CN4CC5(C4)CN(c4ccc(-c6cnc7[nH]cc(C(=O)c8c(F)ccc(NS(=O)(=O)N9CC[C@@H](F)C9)c8F)c7c6)cc4)C5)ccc3C2=O)C(=O)N1
endpointResult: 1 to 10 nM
--
compound: O=C1CC[C@H](N2Cc3cc(C4CCN(CC5CCN(c6ccc(-c7cnc8[nH]cc(C(=O)c9c(F)ccc(NS(=O)(=O)CC%10CC%10)c9F)c8c7)cc6)CC5)CC4)ccc3C2=O)C(=O)N1
endpointResult: < 1 nM
--
compound: O=C1CCC(N2Cc3cc(OC[C@@H](O)CN4CC5(C4)CN(c4ccc(-c6cnc7[nH]cc(C(=O)c8c(F)ccc(NS(=O)(=O)N9CC[C@@H](F)C9)c8F)c7c6)cc4)C5)ccc3C2=O)C(=O)N1 (some centres unmarked)
endpointResult: 1 to 10 nM

---

measuredTarget: BRAF G466V (Homo sapiens, UniProt P15056, G466V)
Construct: expressed in transfected cells
testName: Cellular assay of target protein degradation, T-Rex 293 cells stably transfected with HA-BRAF G466V (HA immunofluorescence, high content imaging)
Assay type: cell-based
conditionSet: half maximal degradation, T-Rex 293 HA-BRAF G466V; read-out: BRaf G466V DC50

molecule: CCN(C)S(=O)(=O)Nc1ccc(F)c(C(=O)c2c[nH]c3ncc(-c4ccc(N5CCC(CN6CCC(c7ccc8c(c7)CN(C7CCC(=O)NC7=O)C8=O)CC6)CC5)cc4)cc23)c1F (centres unmarked)
DC50: < 1 nM
--
molecule: O=C1CCN(c2ccc(C3CCN(CC4CCN(c5ccc(-c6cnc7[nH]cc(C(=O)c8c(F)ccc(NS(=O)(=O)N9CC[C@@H](F)C9)c8F)c7c6)cc5)CC4)CC3)cc2F)C(=O)N1
DC50: < 1 nM
--
molecule: O=C1CC[C@H](N2Cc3cc(C4CCN(CC5CCN(c6ccc(-c7cnc8[nH]cc(C(=O)c9c(Cl)ccc(NS(=O)(=O)N%10CC[C@@H](F)C%10)c9Cl)c8c7)cc6)CC5)CC4)ccc3C2=O)C(=O)N1
DC50: 1 to 10 nM
--
molecule: O=C1CCC(N2Cc3cc(C4CCN(CC5CCN(c6cnc(-c7cnc8[nH]cc(C(=O)c9c(F)ccc(NS(=O)(=O)N%10CC[C@@H](F)C%10)c9F)c8c7)nc6)CC5)CC4)ccc3C2=O)C(=O)N1 (some centres unmarked)
DC50: 1 to 10 nM
--
molecule: C[C@H]1CCCN1S(=O)(=O)Nc1ccc(F)c(C(=O)c2c[nH]c3ncc(-c4ccc(N5CCC(CN6CCC(c7ccc8c(c7)CN([C@H]7CCC(=O)NC7=O)C8=O)CC6)CC5)cc4)cc23)c1F
DC50: 1 to 10 nM

---

measuredTarget: BRAF G466V (Homo sapiens, UniProt P15056, G466V)
Construct: expressed in transfected cells
testName: Cellular assay of target protein degradation, T-Rex 293 cells stably transfected with HA-BRAF G466V (HA immunofluorescence, high content imaging)
Assay type: cell-based
conditionSet: half maximal degradation, T-Rex 293 HA-BRAF G466V; read-out: BRaf G466V DC50

molecule: COc1cc([C@H](O)CCN2CCN(c3ccc(-c4cnc5[nH]cc(C(=O)c6c(F)ccc(NS(=O)(=O)N7CC[C@@H](F)C7)c6F)c5c4)cc3)CC2)cc2c1C(=O)N([C@@H]1CCC(=O)NC1=O)C2
DC50: 1 to 10 nM
//
molecule: O=C1CC[C@@H](N2Cc3cc(CN4C[C@@H]5CN(c6ccc(-c7cnc8[nH]cc(C(=O)c9c(F)ccc(NS(=O)(=O)N%10CC[C@@H](F)C%10)c9F)c8c7)cc6)C[C@@H]5C4)ccc3C2=O)C(=O)N1
DC50: > 30 nM
//
molecule: O=C1CC[C@H](N2Cc3cc(N4CCC(CN5CCN(c6ccc(-c7cnc8[nH]cc(C(=O)c9c(F)ccc(NS(=O)(=O)N%10CC[C@@H](F)C%10)c9F)c8c7)cc6)CC5)CC4)c(F)cc3C2=O)C(=O)N1
DC50: 1 to 10 nM
//
molecule: O=C1CC[C@@H](N2Cc3cc(N4CC5(CN(CC6CCN(c7ccc(-c8cnc9[nH]cc(C(=O)c%10c(F)ccc(NS(=O)(=O)N%11CC[C@@H](F)C%11)c%10F)c9c8)cc7)CC6)C5)C4)ccc3C2=O)C(=O)N1
DC50: 1 to 10 nM
//
molecule: O=C1CCC(N2Cc3cc(C4CCN(C[C@@H]5CCN(c6ccc(-c7cnc8[nH]cc(C(=O)c9c(F)ccc(NS(=O)(=O)N%10CC[C@@H](F)C%10)c9F)c8c7)cc6)C(=O)C5)CC4)ccc3C2=O)C(=O)N1 (stereo partly drawn)
DC50: 1 to 10 nM
//
molecule: O=C1CCC(N2Cc3cc(N4CCC(CCCN5CCN(c6ccc(-c7cnc8[nH]cc(C(=O)c9c(F)ccc(NS(=O)(=O)N%10CC[C@@H](F)C%10)c9F)c8c7)cc6)CC5)CC4)ccc3C2=O)C(=O)N1 (stereo partly drawn)
DC50: 1 to 10 nM
//
molecule: O=C1CCC(N2Cc3cc(N4CCC(F)(CN5CC6(C5)CN(c5ccc(-c7cnc8[nH]cc(C(=O)c9c(F)ccc(NS(=O)(=O)N%10CC[C@@H](F)C%10)c9F)c8c7)cc5)C6)CC4)ccc3C2=O)C(=O)N1 (stereo partly drawn)
DC50: 1 to 10 nM
//
molecule: O=C1CC[C@@H](NC(=O)N2CCCc3c(C4CCN(CC5CCN(c6ccc(-c7cnc8[nH]cc(C(=O)c9c(F)ccc(NS(=O)(=O)N%10CC[C@@H](F)C%10)c9F)c8c7)cc6)CC5)CC4)ccnc32)C(=O)N1
DC50: 1 to 10 nM
//
molecule: O=C1CC[C@H](N2Cc3cc(C4CCN(CC5CCN(c6ccc(-c7cnc8[nH]cc(C(=O)c9c(F)ccc(NS(=O)(=O)N%10CC[C@@H](F)C%10)c9F)c8c7)cc6)CC5)CC4)ccc3C2=O)C(=O)N1
DC50: < 1 nM
//
molecule: CC(C)N(C)S(=O)(=O)Nc1ccc(F)c(C(=O)c2c[nH]c3ncc(-c4ccc(N5CCC(CN6CCC(c7ccc8c(c7)CN([C@H]7CCC(=O)NC7=O)C8=O)CC6)CC5)cc4)cc23)c1F
DC50: < 1 nM
//
molecule: O=C1CCC(N2Cc3cc(N4CCC(CN5CCN(Cc6ccc(-c7cnc8[nH]cc(C(=O)c9c(F)ccc(NS(=O)(=O)N%10CC[C@@H](F)C%10)c9F)c8c7)cc6)CC5)CC4)ccc3C2=O)C(=O)N1 (stereo partly drawn)
DC50: 1 to 10 nM
//
molecule: COc1cc(N2CC3(CN(CC4CCN(c5ccc(-c6cnc7[nH]cc(C(=O)c8c(F)ccc(NS(=O)(=O)N9CC[C@@H](F)C9)c8F)c7c6)cc5)CC4)C3)C2)cc(F)c1C(=O)NC1CCC(=O)NC1=O (stereo partly drawn)
DC50: 1 to 10 nM
//
molecule: O=C1CCC(c2ccc(C3CCN(CC4CCN(c5ccc(-c6cnc7[nH]cc(C(=O)c8c(F)ccc(NS(=O)(=O)N9CC[C@@H](F)C9)c8F)c7c6)cc5)CC4)CC3)cc2F)C(=O)N1 (stereo partly drawn)
DC50: 1 to 10 nM
//
molecule: O=C1CC[C@@H](NC(=O)c2ccc(N3CCC(CN4CC5(C4)CN(c4ccc(-c6cnc7[nH]cc(C(=O)c8c(F)ccc(NS(=O)(=O)N9CC[C@@H](F)C9)c8F)c7c6)cc4)C5)CC3)cc2F)C(=O)N1
DC50: 10 to 30 nM
//
molecule: O=C1CCC(N2Cc3cc(N4CCC(CN5CC[C@@H]6CN(c7ccc(-c8cnc9[nH]cc(C(=O)c%10c(F)ccc(NS(=O)(=O)N%11CC[C@@H](F)C%11)c%10F)c9c8)cc7)C[C@@H]6C5)CC4)ccc3C2=O)C(=O)N1 (stereo partly drawn)
DC50: 1 to 10 nM
//
molecule: O=C1CCC(N2Cc3cc(N4CC5(CN(CCOc6ccc(-c7cnc8[nH]cc(C(=O)c9c(F)ccc(NS(=O)(=O)N%10CC[C@@H](F)C%10)c9F)c8c7)cc6)C5)C4)ccc3C2=O)C(=O)N1 (stereo partly drawn)
DC50: < 1 nM
//
molecule: CN(CC1CCN(c2ccc(-c3cnc4[nH]cc(C(=O)c5c(F)ccc(NS(=O)(=O)N6CC[C@@H](F)C6)c5F)c4c3)cc2)CC1)[C@H]1C[C@@H](Oc2ccc3c(c2)CN(C2CCC(=O)NC2=O)C3=O)C1 (stereo partly drawn)
DC50: 1 to 10 nM
//
molecule: O=C1CC[C@H](N2Cc3cc(N4CCC(OC5CCN(c6ccc(-c7cnc8[nH]cc(C(=O)c9c(F)ccc(NS(=O)(=O)N%10CC[C@@H](F)C%10)c9F)c8c7)cc6)CC5)CC4)ccc3C2=O)C(=O)N1
DC50: 1 to 10 nM
